procedure.summary: in vivo
Parameters: species or system CD-1 mice
assay.conditions: mouse, iv, 1 mg/kg
Non-standard residues stand in square brackets, D forms with d. Residues, ends and D or L forms follow the SMILES beside them. Dab = NCC[C@H](N)C(=O)O
metric: half-life (min)
Give bare numbers, in min.

Name the reported half-life value associated with the compound CC[C@H](C)[C@@H]1NC(=O)[C@H](Cc2c[nH]c3ccccc23)NC(=O)[C@H]([C@@H](C)O)NC(=O)[C@@H]2CCCN2C(=O)[C@H]2CCCN2C(=O)[C@H](CCN)NC(=O)[C@H](C)NC(=O)[C@H](CCN)NC(=O)[C@H](CCN)NC(=O)[C@H](Cc2c[nH]c3ccccc23)NC(=O)[C@H](CCN)NC(=O)[C@H](CCN)NC(=O)[C@H](CCCCN)NC(=O)[C@H](CCN)NC1=O [Example 1] (cyclo(TWI[Dab]K[Dab][Dab]W[Dab][Dab]A[Dab][dP]P))
31.8
